- Protocol Summary: qHTS Assay for Identifying a Potential Treatment of Ataxia-Telangiectasia: SAR for Probe
- Condition Details: F2112 A-T fibroblasts, NCS-induced pKAP1 AlphaLISA; series mostly up to 76.9 µM
Records with an inconclusive call do not appear. Active and inactive are the calls of the source. Calls follow the shape of the dose curve; as a rule, active = well fitted activation curve with a large enough effect; inconclusive = small, poorly fitted or top-dose-only effect; inactive = flat fitted curve, though single readings scatter.
Measure: Potency

COc1cc(/C=C/C(=O)n2cnc3ccccc32)cc(OC)c1OC    13 µM (active)
CC(C)=C/C=C/C(=O)c1ccccc1O    inactive
CC1(C)C=Cc2ccc(O)c(C(=O)/C=C/c3ccccc3)c2O1    36.8 µM (active)
COc1c(C(=O)/C=C/c2ccccc2)ccc2c1C=CC(C)(C)O2    36.8 µM (active)
CC1(C)C=Cc2c(O)cc(O)c(C(=O)/C=C/c3ccccc3)c2O1    46.3 µM (active)

Problem: Supply Potency value. Item: "C=CCSc1nc2ccccc2n1C(=O)/C=C/c1ccc(F)cc1"
Result: 9.23 µM (active)

Problem: Supply Potency value. Item: "O=C(/C=C/c1ccccc1)n1cnc2ccccc21"
Result: inactive
